Data credit: patent US20150004189A1

Measured pIC50 accompanies every entry in the list below.
Tested System: HLA-DQ molecule DQB1*0202 (human)
Protocol Text: inhibition of radiolabeled peptide binding to purified HLA-DQ
pIC50 (log units): -log10 of the concentration in mol/L.

Please review the following examples before continuing.
# Binder, pIC50
records = [
    ("ASEVFKAVEAYLVAH [Que a 1 (141-155) peptide ASEVFKAVEAYLVAH]", 6.02),
    ("KAFVLDSDNLIPKVV [Que a 1 (21-35) peptide KAFVLDSDNLIPKVV]", 6.71),
    ("NMNIKLKMPLYVAGH [Cup s 1 (96-110) peptide NMNIKLKMPLYVAGH]", 4.30),
    ("GSDEKNLALSIKYNK [Dac g 2 (11-25) peptide GSDEKNLALSIKYNK]", 5.14),
    ("NLNIKLNMPLYIAGN [Cha o 1 (96-110) peptide NLNIKLNMPLYIAGN]", 4.40),
    ("PARLFKAFVLDSDNL [Que a 1 (16-30) peptide PARLFKAFVLDSDNL]", 6.51),
    ("EDTNIYNSNEAFKVE [Cup a 1 (316-330) peptide EDTNIYNSNEAFKVE]", 5.12),
]

# evaluate next
GET /value?item= EKALWIIFSQNMNIK [Cup s 1 (86-100) peptide EKALWIIFSQNMNIK] &field=pIC50 returns 5.26
